Some binders, each annotated with its measured Binding recovery (>60%).
study-target: T1, IL-10R1-Fc (UniProt Q13651 22-235, limits assumed)
T1 sequence (looked up): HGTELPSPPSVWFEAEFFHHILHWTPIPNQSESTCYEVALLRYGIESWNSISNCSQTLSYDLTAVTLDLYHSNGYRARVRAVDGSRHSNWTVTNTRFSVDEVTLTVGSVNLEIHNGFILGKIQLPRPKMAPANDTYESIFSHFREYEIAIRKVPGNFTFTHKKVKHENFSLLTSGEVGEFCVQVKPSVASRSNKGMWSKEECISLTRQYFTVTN
assay-protocol: ELISA, IL-10R1-Fc coated
property-label: Binding recovery (>60%)

[[record]]
binder = "IL-10 Ser51Cys-R4-7 (ligand, human, UniProt P22301 19-178, looked up, R4-7 on Cys 51, mature) SPGQGTQSENSCTHFPGNLPNMLRDLRDAFSRVKTFFQMKDQLDNLLLKECLLEDFKGYLGCQALSEMIQFYLEEVMPQAENQDPDIKAHVNSLGENLKTLRLRLRRCHRFLPCENKSKAVEQVKNAFNKLQEKGIYKAMSEFDIFINYIEAYMTMKIRN"
readout_units = "%"
assay_value = 96.7

[[record]]
binder = "IL-10 Thr6Cys-R4-7 (ligand, human, UniProt P22301 19-178, looked up, R4-7 on Cys 6, mature) SPGQGCQSENSCTHFPGNLPNMLRDLRDAFSRVKTFFQMKDQLDNLLLKESLLEDFKGYLGCQALSEMIQFYLEEVMPQAENQDPDIKAHVNSLGENLKTLRLRLRRCHRFLPCENKSKAVEQVKNAFNKLQEKGIYKAMSEFDIFINYIEAYMTMKIRN"
readout_units = "%"
assay_value = 101


The origin of these recorded values is patent US20230158141A1.
